test system: BEM1-1; assay: DHFR-PCA on solid medium, bait BEM1-1 (Fig. 1B); type: cell-based, Saccharomyces cerevisiae; conditions: bait BEM1-1, label = prey; 2-8 replicates
Examples of molecules with documented medrep (log2 median colony size normalized to plate background, PCA score) follow.
measured.parameter: medrep (log2 median colony size normalized to plate background, PCA score)

| molecule | result.number |
| --- | --- |
| YLR332W (protein, UniProt P36027 26-376, looked up) Cell wall integrity sensor …: QFFVQSSSSNSSAVSTARSSVSRVSSSSSILSSSMVSSSSADSSSLTSSTSSRSLVSHTSSSTSIASISFTSFSFSSDSSTSSSSSASSDSSSSSSFSISSTSATSESSTSSTQTSTSSSSSLSSTPSSSSSPSTITSAPSTSSTPSTTAYNQGSTITSIINGKTILSNHYTTVTYTPSATADSSNKSKSSGLSKKNRNIVIGCVVGIGVPLILVILALIYMFCIQSSRTDFIDSDGKVVTAYRANKFTKWWYMLLGKKVSDEYHSDSPLGGSASSAGGLDLDEADDVMEQSSLFDVRIRDSDSVLPNANTADHNNTNSGGEPINSSVASNDIIEEKFYDEQGNELSPRNY | 4.445 |
| YKL051W (protein, UniProt P35735 1-353, looked up) Protein SFK1: MIQFKSPGNWLFIVPWIAFIPWYGMLIAMLICWASQGHPIYWFMHSEQFPVYISDIGATNLRPLFISCAGWQGLGYVITVALEFFQRSGYLPFQLKKKDPSISDSTSYAEKLHSGKYLMPPYYTKDERNLIFAAFVLGSIGELALLFSSIFSTALYHRVHIAMVSVFVVFMFLSTCCLIAEYFLMGRHYASVHPLASPHFNPQSSEKSFNQDYNTVDELPWYKWKGHVWNKFTISATLKVIWLTLAVVWAICFGAINDRSKSACFEWLLAFWFGIIFMILSADFYLGGRYRQSRYFNHVESFSGYYKYDKALGLYHSEDVLPSDDNAGVIATETASSNIYNNSSSNESIQVVV | 3.661 |
| YLR191W (protein) EFARALYDFVPENPEMEVALKKGDLMAILSKKDPLGRDSDWWKVRTKNGNIGYIPYNYIEIIK | 3.807 |
